Tested on: MYB mRNA
Assay: Splicing RT-qPCR assay, MYB canonical (CJ) and alternative (AJ) junction mRNA
Format: cell-based
Conditions: Homo sapiens, decrease in canonical junction mRNA, A673 or K562 cells, 24 hours
Method: Compounds described herein were used to modulate RNA transcript abundance in cells. The expression of a target mRNA was measured by detecting the formation of an exon-exon junction in the canonical transcript (CJ). A compound mediated exon-inclusion event was detected by observing an increase in formation of a new junction with an alternative exon (AJ). Real-time qPCR assays were used to detect these splicing switches and interrogate the potency of various compounds towards different target genes. […]
RESULT_TYPE: IC50

// query Which IC50 value belongs to COc1nc2c(N3C[C@@H](C)N[C@@H](C)C3)ccc(C(=O)Nc3cc(F)c4nc(C)cn4c3)c2nc1C [Compound 260, 2,2,2-trifluoroacetate] ?
// result 100 to 1000 nM

// query Which IC50 value belongs to Cc1cn2cc(NC(=O)c3ccc(N(C)[C@@H]4C[C@H]5CC[C@@H](C4)N5)c4ccnnc34)cc(F)c2n1 [Compound 156] ?
// result 1000 to 10000 nM

// query Which IC50 value belongs to Cc1cn2cc(NC(=O)c3ccc(N4CCN[C@H](C5CC5)C4)c4nccnc34)cc(F)c2n1 [Compound 253] ?
// result < 100 nM

// query Which IC50 value belongs to Cc1cn2nc(NC(=O)c3ccc(N4CCNCC4)c4ccnnc34)cc(C)c2n1 [Compound 100] ?
// result 100 to 1000 nM

// query Which IC50 value belongs to Cc1cn2cc(NC(=O)c3ccc(N4CCNC5(CCC5)C4)c4nccnc34)cc(F)c2n1 [Compound 363] ?
// result 100 to 1000 nM

The origin of these recorded values is patent US20240409536A1.
